Each item that follows carries a reported melting point.

Inquiry: What value of melting point has been recorded for this entry: COc1nc(Oc2ccc(C(=O)O)cc2)cnc1NS(=O)(=O)c1cccc(Cl)c1Cl [Example 73]
Reply text: 186 to 187 °C

Continuing:
Inquiry: Please give the measured melting point for this compound: COc1cnc(NS(=O)(=O)c2cccc(Cl)c2Cl)c(OC)n1 [Example 56]
Reply text: 138 to 139 °C

Inquiry: Any idea what melting point was measured for O=S(=O)(Nc1ncc(Cl)nc1OCc1cccc(CO)c1)c1cccc(Cl)c1Cl [Example 106] ?
Reply text: 162 to 163 °C

Inquiry: Any idea what its melting point is? The compound is COc1nc(C(C)(C)O)cnc1NS(=O)(=O)c1cccc(Cl)c1Cl [Example 114]
Reply text: 192 to 193 °C

Inquiry: Any idea what its melting point is? The compound is Nc1nc(COc2nc(Cl)cnc2NS(=O)(=O)c2cccc(Cl)c2Cl)co1 [Example 212]
Reply text: 137 °C

Inquiry: Query (compound): COc1nc(C#N)cnc1NS(=O)(=O)c1cccc(Cl)c1Cl [Example 190] ; field requested: melting point
Reply text: 239 to 240 °C

Inquiry: Requested read-out: melting point. Entry: COc1ncc(Cl)nc1NS(=O)(=O)c1ccc(Cl)cc1Cl [Example 41]
Reply text: 189 to 190 °C

Inquiry: Need melting point of O=S(=O)(Nc1ncc(Cl)nc1OCc1ccc(CO)cc1)c1cccc(Cl)c1Cl [Example 109] , thanks.
Reply text: 177 to 178 °C

Inquiry: What melting point value was documented for this compound, COc1nc(Cl)cnc1NS(=O)(=O)c1cccc(Cl)c1C [Example 50] ?
Reply text: 150 to 152 °C
